Quick reference: koff of the listed items.
- target_system: T1, recombinant human IL-23R/Fc chimera (R&D Systems) (human, UniProt Q5VWK5 24-355)
- T1 construct: Bought; also called rhIL23RFc
- T1 sequence (looked up): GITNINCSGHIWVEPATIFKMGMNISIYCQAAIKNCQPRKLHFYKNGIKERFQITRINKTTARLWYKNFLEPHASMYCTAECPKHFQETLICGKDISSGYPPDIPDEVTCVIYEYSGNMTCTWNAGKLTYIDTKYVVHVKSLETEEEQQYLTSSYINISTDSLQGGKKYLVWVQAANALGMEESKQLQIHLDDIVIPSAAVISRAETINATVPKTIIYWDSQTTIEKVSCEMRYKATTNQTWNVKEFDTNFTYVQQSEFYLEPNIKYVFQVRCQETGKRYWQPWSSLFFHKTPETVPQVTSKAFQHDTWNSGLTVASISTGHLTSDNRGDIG
- experiment_summary: SPR
Please append the unit to your numeric answer.

Input line: Name the recorded koff for 001-69.4G8 ATRIMER complex (designed binder, not shown: C-terminal tag: His/Myc (pANA4) or HA-StrepII (pANA10)) EPPTQKPKKIVNAKKDVVNTKMFEELKSRLDTLAQEVALLKEQQALQTVCLKGTKVHMKCFLAFTQTKTFHEASEDCISRGGTLSTPQTGSENDALYEYLRQSVGNEAEIWLGLNGSRRSGVWVDMTGARIAYKNWETEITAQPDGGFGVFGENCAVLSGAANGKWFDKRCRDQLPYICQFGIV .
Output line: 0.000805 s⁻¹

Further cases:
Input line: Tell me the measured koff of 101-51-1A9 ATRIMER complex (designed binder) EPPTQKPKKIVNAKKDVVNTKMFEELKSRLDTLAQEVALLKEQQALQTVCLKGTKVHMKCFLAFTQTKTFHEASEDCISRGGTLSTPQTGSENDALYEYLRQSVGNEAEIWLGLNGSALTNTWVDMTGARIAYKNWEPARQPQPGGGFGYFGENCAVLSGAANGKWFDKRCRDQLPYICQFGIV , please.
Output line: 0.000329 s⁻¹
